Origin of values: patent US10065941B2

# tested_on: human P2X3 receptor (Homo sapiens (Human))
# assay_remarks: Evaluation of human P2X3 receptor inhibitory activity (Test Example 1)
# condition_parameters: C6BU-1 cell transfected with human P2X3 receptor gene, FLIPR 384
pIC50: −log10 of the molar value.
Please note: true applies when pIC50 is 7 or greater, and false applies otherwise.

INPUT: Please indicate if the recorded pIC50 for `COC(=O)C(C)(C)Cn1c(=O)[nH]/c(=N\c2ccc(Oc3noc(C)n3)cc2)n(Cc2ccc(Cl)cc2)c1=O` meets or exceeds 7.
OUTPUT: true

INPUT: Please indicate if the recorded pIC50 for `CCc1oc2ccc(/N=c3\[nH]c(=O)n([C@H]4C[C@H](C(=O)O)C4)c(=O)n3Cc3ccc(Cl)cc3)cc2c1C` meets or exceeds 7.
OUTPUT: true

INPUT: Please indicate if the recorded pIC50 for `O=C(O)Cn1c(=O)[nH]/c(=N\c2ccc(Oc3ccc(Cl)cn3)cc2)n(Cc2ccc(Cl)cc2)c1=O` meets or exceeds 7.
OUTPUT: false

INPUT: Please indicate if the recorded pIC50 for `CCn1c(=O)[nH]/c(=N\c2ccc(O[C@H]3C[C@@H](C(=O)O)C3)cc2)n(Cc2ccc(Cl)cc2)c1=O` meets or exceeds 7.
OUTPUT: false

INPUT: Please indicate if the recorded pIC50 for `C[C@@H](Cn1c(=O)[nH]/c(=N\c2ccc(OC3CCC3)c(F)c2)n(Cc2ccc(Cl)cc2)c1=O)C(=O)O` meets or exceeds 7.
OUTPUT: true

* * *

# tested_on: human P2X3 receptor (Homo sapiens (Human), UniProt P56373)
# Sequence (P56373 whole entry): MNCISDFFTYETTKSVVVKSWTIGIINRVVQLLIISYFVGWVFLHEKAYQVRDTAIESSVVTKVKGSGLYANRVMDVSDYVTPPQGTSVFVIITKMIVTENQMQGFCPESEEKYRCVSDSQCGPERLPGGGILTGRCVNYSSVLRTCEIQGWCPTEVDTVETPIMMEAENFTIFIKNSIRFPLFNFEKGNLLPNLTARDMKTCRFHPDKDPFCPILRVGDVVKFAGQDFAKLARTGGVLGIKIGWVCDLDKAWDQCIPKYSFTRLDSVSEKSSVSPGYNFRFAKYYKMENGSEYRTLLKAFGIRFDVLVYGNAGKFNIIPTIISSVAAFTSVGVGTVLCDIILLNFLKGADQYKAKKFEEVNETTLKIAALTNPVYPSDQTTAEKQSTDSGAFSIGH
# assay_remarks: Evaluation of human P2X3 receptor inhibitory activity (Test Example 1)
# condition_parameters: C6BU-1 cell transfected with human P2X3 receptor gene, FLIPR 384
parameter: pIC50
Remember the convention: pIC50 equals -log10 of concentration in molar.

INPUT: // pIC50 lookup, key: `C[C@@H](Cn1c(=O)[nH]/c(=N\c2ccc(Oc3cnc(C(F)(F)F)cn3)cc2)n(Cc2ccc(Cl)cc2)c1=O)C(=O)O`
OUTPUT: 8.22

INPUT: // pIC50 lookup, key: `COC(=O)[C@@H](Cn1c(=O)[nH]/c(=N\c2ccc(Oc3ccccn3)cc2)n(Cc2ccc(Cl)cc2)c1=O)OC`
OUTPUT: 8.52

INPUT: // pIC50 lookup, key: `Cc1cc(/N=c2\[nH]c(=O)n(CC(C)(C)C(=O)O)c(=O)n2Cc2ccc(Cl)cc2)ccc1Oc1cnccn1`
OUTPUT: 8.05

INPUT: // pIC50 lookup, key: `CCOC(=O)[C@H]1C[C@@H](n2c(=O)[nH]/c(=N\c3ccc(Oc4ccccn4)cc3)n(Cc3ccc(C)cc3)c2=O)C1`
OUTPUT: 8.30

INPUT: // pIC50 lookup, key: `C[C@@H](C(=O)O)[C@H](C)n1c(=O)[nH]/c(=N\c2ccc(Oc3ccccn3)c(F)c2)n(Cc2ccc(Cl)cc2)c1=O`
OUTPUT: 8.15

INPUT: // pIC50 lookup, key: `Cc1ccc(Cn2c(=O)n(C[C@H](C)C(=O)O)c(=O)[nH]/c2=N\c2ccc(Oc3ccc(C(F)(F)F)cn3)cc2)cc1`
OUTPUT: 8.30

* * *

For each entry below, report its pIC50 value.
# tested_on: human P2X3 receptor (Homo sapiens (Human), UniProt P56373)
# assay_remarks: Evaluation of human P2X3 receptor inhibitory activity (Test Example 1)
# condition_parameters: C6BU-1 cell transfected with human P2X3 receptor gene, FLIPR 384
Remember the convention: pIC50 equals -log10 of concentration in molar.

INPUT: // pIC50 lookup, key: `CNC(=O)CCn1c(=O)[nH]/c(=N\c2ccc(Oc3ccccn3)cc2)n(Cc2ccc(Cl)cc2)c1=O`
OUTPUT: 8.30

INPUT: // pIC50 lookup, key: `COC(=O)[C@@H](C)Cn1c(=O)[nH]/c(=N\c2ccc(Oc3cnccn3)c(C)c2)n(Cc2ccc(Cl)cc2)c1=O`
OUTPUT: 8.30

INPUT: // pIC50 lookup, key: `C[C@@H](Cn1c(=O)[nH]/c(=N\c2ccc(Oc3ncccn3)c(F)c2)n(Cc2ccc(Cl)cc2)c1=O)C(=O)O`
OUTPUT: 8.00

INPUT: // pIC50 lookup, key: `CC(C)n1c(=O)[nH]/c(=N\c2ccc(Oc3cccc(C(=O)O)n3)c(Cl)c2)n(Cc2ccc(Cl)cc2)c1=O`
OUTPUT: 8.30
